Endpoint: melting point

In [3]: df
Out[3]:
                                    molecule  observed_result
 0  CCOc1ccc(/C=C(\C(N)=O)S(=O)(=O)Cc2ccc(Cl)cc2)cc1OC    195 to 197 °C
 1  COc1ccc(CS(=O)(=O)/C(C#N)=C/c2c(OC)cc(OC)cc2OC)cc1    178 to 180 °C
 2  Cc1ccc(NS(=O)(=O)/C(C#N)=C/c2ccc(Cl)cc2)c(C)c1    158 to 161 °C
 3  Cc1ccc(NS(=O)(=O)/C(C#N)=C/c2cc(Cl)cc(Cl)c2Cl)c(C)c1    171 to 173 °C
 4  Cc1ccc(NS(=O)(=O)/C(C#N)=C/c2c[nH]c3ccc(Br)cc23)c(C)c1    231 to 235 °C
 5  CCOc1ccc(/C=C(\C#N)S(=O)(=O)Cc2ccc(Cl)cc2)cc1OC    143 to 148 °C
 6  COc1ccc(CS(=O)(=O)/C(C#N)=C/c2ccc([N+](=O)[O-])cc2)cc1    174 to 176 °C
 7  CCOc1ccc(/C=C(\C(N)=O)S(=O)(=O)Cc2ccc(Cl)cc2Cl)cc1OC    245 to 247 °C
 8  N#C/C(=C\c1c[nH]c2ccccc12)S(=O)(=O)Nc1ccc(Br)cc1    208 to 210 °C
 9  COc1ccc(/C=C(\C#N)S(=O)(=O)Cc2ccc(Cl)cc2Cl)cc1    114 to 127 °C
10  COc1cccc(OC)c1/C=C(\C(N)=O)S(=O)(=O)Cc1ccc(Cl)cc1    150 to 154 °C
11  N#C/C(=C\c1c(F)c(F)c(F)c(F)c1F)S(=O)(=O)Cc1ccc(Cl)cc1    154 to 156 °C
12     N#C/C(=C\c1ccccc1O)S(=O)(=O)Cc1ccccc1    135 to 138 °C
13  CCOc1cc(/C=C(\C#N)S(=O)(=O)Cc2ccc(Cl)cc2)ccc1O [Example 54]    155 to 169 °C
14  N#C/C(=C\c1ccccc1Cl)S(=O)(=O)Nc1ccc(F)cc1    182 to 184 °C
15  COc1ccc(/C=C(\C#N)S(=O)(=O)Cc2ccccc2)c(OC)c1    125 to 130 °C
16  COc1cc(/C=C(\C#N)S(=O)(=O)Cc2ccc(Cl)cc2Cl)cc(OC)c1OC    147 to 152 °C
17   COc1ccc(CS(=O)(=O)/C(C#N)=C/c2ccoc2)cc1    150 to 153 °C
18  N#C/C(=C\c1ccc(Br)cc1)S(=O)(=O)Cc1ccc(Cl)cc1    168 to 180 °C
19  COc1ccc(NS(=O)(=O)/C(C#N)=C/c2ccc(Cl)c(Cl)c2)cc1      84 to 86 °C
20  N#C/C(=C\c1ccc(F)cc1)S(=O)(=O)Cc1ccc(Cl)cc1    145 to 150 °C
21   Cc1ccsc1/C=C(\C#N)S(=O)(=O)Nc1ccc(F)cc1    179 to 181 °C
22  N#C/C(=C\c1ccc(Br)cc1)S(=O)(=O)Cc1ccc(Cl)cc1Cl    126 to 138 °C
23  COc1ccc(NS(=O)(=O)/C(C#N)=C/c2ccc(OC)c(OC)c2OC)cc1    140 to 142 °C
24  Cc1ccc(NS(=O)(=O)/C(C#N)=C/c2ccc(N(C)C)cc2)c(C)c1    168 to 171 °C
25  COc1ccc(CS(=O)(=O)/C(C#N)=C/c2c(F)c(F)c(F)c(F)c2F)cc1    110 to 112 °C
26  N#C/C(=C\c1ccccc1O)S(=O)(=O)Nc1ccc(Br)cc1    169 to 170 °C
27  CC(=O)c1ccc(/C=C(\C(N)=O)S(=O)(=O)Cc2ccc(Cl)cc2Cl)cc1    207 to 210 °C
28  N#C/C(=C\c1ccc(Cl)cc1Cl)S(=O)(=O)Cc1ccc(Cl)cc1    121 to 126 °C
29  COc1ccc(CS(=O)(=O)/C(C#N)=C/c2ccc3c(c2)OCO3)cc1    186 to 188 °C
30  COc1ccc(NS(=O)(=O)/C(C#N)=C/c2ccc(Br)cc2)cc1 [Example 190]    106 to 107 °C
31  COc1cc(/C=C(\C#N)S(=O)(=O)Cc2ccc(F)cc2)cc(OC)c1    120 to 123 °C
32  N#C/C(=C\c1c[nH]c2ccc(Br)cc12)S(=O)(=O)Nc1ccc(F)cc1    167 to 169 °C
33  N#C/C(=C\c1ccc([N+](=O)[O-])cc1F)S(=O)(=O)Cc1ccc(Cl)cc1    243 to 253 °C
34  Cc1ccc(/C=C(\C#N)S(=O)(=O)Nc2ccc(F)cc2)cc1C    141 to 142 °C
